# Tested on: MOLM-13
# PROCEDURE_DETAILS: Secondary dose-response HTS, Cell Titer Glo
# Format: cell-based, human
# EXPERIMENTAL_CONDITIONS: Homo sapiens; secondary high-throughput screen; MOLM-13; read-out: average effective concentration, MOLM-13
pEC50: −log10 of the molar value.
I would appreciate it if you labelled entries fulfilled when pEC50 is 6 or higher, otherwise not fulfilled.

* C=CC(=O)N1CCC[C@@H](n2nc(-c3ccc(Oc4ccccc4)cc3)c3c(N)ncnc32)C1 [Ibrutinib, reference compound] | not fulfilled
* CCN(CC)CCNC(=O)c1c(C)[nH]c(/C=C2\C(=O)Nc3ccc(F)cc32)c1C | fulfilled
* Nc1nc2[nH]cc(CCc3ccc(C(=O)N[C@@H](CCC(=O)O)C(=O)O)cc3)c2c(=O)[nH]1 | fulfilled
* CC[C@H](C)C(=O)O[C@H]1CCC=C2C=C[C@H](C)[C@H](CC[C@@H]3C[C@@H](O)CC(=O)O3)[C@H]21 | not fulfilled
* CO[C@@]12[C@H](COC(N)=O)C3=C(C(=O)C(C)=C(N)C3=O)N1C[C@@H]1N[C@@H]12 | not fulfilled

Data provenance is paper PMC6522510.
